# test target: T1, Recombinant human MASP1 enzyme (fragment corresponding to amino acids 297-699, C-terminal His Tag) (human, UniProt P48740 297-699)
# T1 sequence: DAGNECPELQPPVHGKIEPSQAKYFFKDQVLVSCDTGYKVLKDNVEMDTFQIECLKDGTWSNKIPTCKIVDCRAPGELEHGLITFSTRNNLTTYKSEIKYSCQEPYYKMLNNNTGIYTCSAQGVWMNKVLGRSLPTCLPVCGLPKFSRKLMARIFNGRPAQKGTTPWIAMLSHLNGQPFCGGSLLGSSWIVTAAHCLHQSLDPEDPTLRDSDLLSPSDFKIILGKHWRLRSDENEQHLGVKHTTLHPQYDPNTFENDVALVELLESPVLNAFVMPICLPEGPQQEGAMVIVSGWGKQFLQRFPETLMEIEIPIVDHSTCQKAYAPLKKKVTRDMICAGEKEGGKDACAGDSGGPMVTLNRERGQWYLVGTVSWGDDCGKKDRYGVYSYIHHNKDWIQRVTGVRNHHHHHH
# test description: cell-based or functional assay
Bridge positions count the residues as written; N and C are the ends. Square brackets hold non-standard residues; d marks the D form. Ends that are not written are not given here. tBuAla = CC(C)(C)C[C@H](N)C(=O)O; Pen = CC(C)(S)[C@H](N)C(=O)O; PEG3 = NCCOCCOCCOCCC(=O)O; PEG2 = NCCOCCOCCC(=O)O; Sar = CNCC(=O)O
Each entry below lists one item and its recorded human MASP1 IC50 value.
quantity name: human MASP1 IC50 (nM)

- [Sar]ICSRS[tBuAla]PPI[Pen]IP[PEG2]-OH (disulfide 3-11; N-terminus assumed; SMILES CC[C@H](C)[C@H](NC(=O)CNC)C(=O)N[C@H]1CSSC(C)(C)[C@@H](C(=O)N[C@H](C(=O)N2CCC[C@H]2C(=O)NCCOCCOCCC(=O)O)[C@@H](C)CC)NC(=O)[C@H]([C@@H](C)CC)NC(=O)[C@@H]2CCCN2C(=O)[C@@H]2CCCN2C(=O)[C@H](CC(C)(C)C)NC(=O)[C@H](CO)NC(=O)[C@H](CCCNC(=N)N)NC(=O)[C@H](CO)NC1=O) [((N-Me)G)-IC+SRS-((tBu)A)-PPI-(Pen)+IP-(PEG1(10 atoms))-OH]: 2.3
- [Sar]ICSRS[tBuAla]PPI[Pen]IP[PEG3]-OH (disulfide 3-11; N-terminus assumed; SMILES CC[C@H](C)[C@H](NC(=O)CNC)C(=O)N[C@H]1CSSC(C)(C)[C@@H](C(=O)N[C@H](C(=O)N2CCC[C@H]2C(=O)NCCOCCOCCOCCC(=O)O)[C@@H](C)CC)NC(=O)[C@H]([C@@H](C)CC)NC(=O)[C@@H]2CCCN2C(=O)[C@@H]2CCCN2C(=O)[C@H](CC(C)(C)C)NC(=O)[C@H](CO)NC(=O)[C@H](CCCNC(=N)N)NC(=O)[C@H](CO)NC1=O) [((N-Me)G)-IC+SRS-((tBu)A)-PPI-(Pen)+IP-(PEG2(13 atoms))-OH]: 5.3
